Origin of the recorded values: ChEMBL document CHEMBL5724696

- Tested on: U2OS
- Test description: Here: values are normalized to the negative (DMSO; defined as 0% autophagy induction) and positive (250nM Torin1; mTOR inhibitor; defined as maximal inducer of autophagy = 100%) control compounds and represented as % of autophagy induction. […] The impact of autophagy induction on cells is complex and depends on the affected target. As such, the magnitude of a phenotype may not be equally mirrored in the %-value of autophagy induction and vice versa. The dynamics of the induction may indicate the mode of activation: e.g. activation via phosphorylation or a signaling cascade may occur fast, while activation via transcription factors may take considerably longer. […] Of note, treatment concentrations may be sub-optimal for specific compounds, leading to false negative annotations.
- Format: functional, Homo sapiens
- Applied conditions: Compound Concentration 2 uM, Timepoint 12 hours, Culturing Media DMEM, 1 % Penicillin/Streptomycin, 10% Fetal bovin serum Add-On: No, Screening Media Control DMEM, Screening Media Samples DMEM
Measured endpoint: autophagy induction

CC(C)NC(=O)c1ccc(C#Cc2ccncc2)cn1
1.689%
Cc1cc([C@@H](C)Nc2cccc(-c3cc(C)c(C(=O)N[C@@H](C)C(=O)O)c(C)c3)c2)ccc1Cl
-9.884%
O=C(O)CC1CCC2(CC1)CCN(c1cc(OC(F)(F)F)ccc1Cl)CC2
-6.392%
Cl.Clc1cccc(COc2cncc(N3CCNCC3)n2)c1
2.897%
CC(C)(N)C(=O)N[C@H](COCc1ccccc1)C(=O)N1CCC2(CC1)CN(S(C)(=O)=O)c1ccccc12.CS(=O)(=O)O [IBUTAMOREN MESYLATE]
-4.688%

Notebook: Cl.Clc1ccc(CCCOCCCN2CCCCC2)cc1 [PITOLISANT HYDROCHLORIDE] , autophagy induction read as -8.536%

For Cl.Cl.Cl.c1ccc(N2CCN(Cc3nc4ccccc4[nH]3)CC2)nc1 the molecule record lists autophagy induction as 16.1665%

Field autophagy induction (entry Cc1nc(C(=O)N2CCC[C@H]2Cc2nnc(-c3ccccc3)o2)c(-c2ccccc2F)s1 ) reads 5.837%
